Attribute: kon
# tested-target: T1, Human CD47-C33G (human, UniProt Q08722 19-135)
# T1 construct: also called CD47 mutein with C33G mutation
# T1 sequence (Q08722 19-135 C33G limits assumed): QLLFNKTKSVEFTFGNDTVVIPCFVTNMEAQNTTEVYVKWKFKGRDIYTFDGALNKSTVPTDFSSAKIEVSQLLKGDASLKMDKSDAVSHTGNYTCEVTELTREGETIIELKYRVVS
# assay-comment: SPR, IgG captured, CD47 in flow; exp 3;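 also: other target is a CD47 mutein carrying C33G, used to obtain true monovalent affinity, with kon and koff fitted from SPR binding curves and KD derived from both rates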
Unit M⁻¹ s⁻¹ implied. Number only.

# binder, kon [M⁻¹ s⁻¹]
measured = [
    ("108VH4.M4-VL1.M1 (antibody, V domains shown, also called original humanized 108C10A6 antibody) VH: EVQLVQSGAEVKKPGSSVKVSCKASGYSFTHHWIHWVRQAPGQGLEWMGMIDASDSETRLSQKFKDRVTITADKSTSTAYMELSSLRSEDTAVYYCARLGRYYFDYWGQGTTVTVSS VL: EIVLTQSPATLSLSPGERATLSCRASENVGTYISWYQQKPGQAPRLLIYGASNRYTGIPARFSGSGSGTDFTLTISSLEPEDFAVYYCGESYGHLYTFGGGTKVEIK", 430000),
    ("108VH10.Mg / 108VL10.Me (antibody, V domains shown, 4D5-framework series; constant regions not restated for this series; also called VH10.Mg VL10.Me) VH: EVQLVESGGGLVQPGGSLRLSCAASGFTFSHHWIHWVRQAPGKGLEWVAMIDASDSETRLSQKFKDRFTISADTSKNTAYLQMNSLRAEDTAVYYCSRLGRYYFDYWGQGTLVTVSS VL: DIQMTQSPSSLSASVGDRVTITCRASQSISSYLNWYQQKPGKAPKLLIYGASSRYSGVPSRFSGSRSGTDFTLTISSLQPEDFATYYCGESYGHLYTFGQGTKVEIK", 230000),
]

Next binder, please.
(Q) Item 108VH10.Ml / 108VL10.Me (antibody, V domains shown, 4D5-framework series; constant regions not restated for this series; also called VH10.Ml VL10.Me) VH: EVQLVESGGGLVQPGGSLRLSCAASGFTFSHHWIHWVRQAPGKGLEWVAMIDASDSETRLSQKFKGRFTISADTSKNTAYLQMNSLRAEDTAVYYCSRLGRYYFDYWGQGTLVTVSS VL: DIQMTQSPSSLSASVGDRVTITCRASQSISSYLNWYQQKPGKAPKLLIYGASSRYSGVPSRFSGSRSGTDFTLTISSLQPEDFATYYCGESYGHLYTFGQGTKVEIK has what recorded kon?
(A) 200000
